# Study system: Aromatic-L-amino-acid decarboxylase (Homo sapiens)
# Sequence (P20711 whole entry): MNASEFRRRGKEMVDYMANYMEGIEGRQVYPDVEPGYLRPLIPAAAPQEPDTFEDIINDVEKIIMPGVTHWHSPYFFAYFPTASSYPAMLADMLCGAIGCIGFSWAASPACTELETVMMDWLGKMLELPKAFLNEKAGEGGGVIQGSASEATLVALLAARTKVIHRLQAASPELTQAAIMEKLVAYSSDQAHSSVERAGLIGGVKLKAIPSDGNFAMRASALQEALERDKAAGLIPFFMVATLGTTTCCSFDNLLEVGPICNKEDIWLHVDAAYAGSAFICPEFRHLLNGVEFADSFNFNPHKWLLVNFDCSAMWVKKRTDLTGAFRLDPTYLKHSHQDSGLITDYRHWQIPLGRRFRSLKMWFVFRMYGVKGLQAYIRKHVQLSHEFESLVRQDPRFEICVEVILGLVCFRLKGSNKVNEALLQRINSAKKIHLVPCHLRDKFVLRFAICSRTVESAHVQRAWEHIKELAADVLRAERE
# Assay: Inhibition of recombinant human DOPA decarboxylase assessed as inhibition of dopamine production after 30 mins by HPLC method
# Condition parameters: read-out: IC50
Collected IC50 values appear next to each entry.
Just the number in µM, nothing appended.

Guide cases for IC50, answers given:
| Smiles notation | Unit spec | IC50 |
| --- | --- | --- |
| COc1cc2c[n+](C)c3ccc(F)cc3c2cc1OC | µM | 2690 |
| COc1cc2c[n+](C)c3ccccc3c2cc1OC | µM | 3500 |
| COc1cc2c[n+](C)c3ccc(Cl)cc3c2cc1OC | µM | 1390 |

(Q) Provide IC50 value for the following compound: `COc1cc2c[n+](C)c3ccc(C)cc3c2cc1OC`
(A) 1490

###

# Study system: Aromatic-L-amino-acid decarboxylase (Homo sapiens)
# Assay: Inhibition of recombinant human DOPA decarboxylase assessed as inhibition of dopamine production after 30 mins by HPLC method
# Condition parameters: read-out: IC50
Collected IC50 values appear next to each entry.
Just the number in µM, nothing appended.

Guide cases for IC50, answers given:
| Molecule | Result type | Experimental result |
| --- | --- | --- |
| C[n+]1cc2ccccc2c2ccccc21 | IC50 | 400 |
| COc1ccc2c(c[n+](C)c3c4cc5c(cc4ccc23)OCO5)c1OC [CHELERYTHRINE] | IC50 | 1280 |
| COc1ccc2c(c1)c[n+](C)c1ccc(F)cc21 | IC50 | 570 |

(Q) Provide IC50 value for the following molecule: `COc1ccc2c(c1)c[n+](C)c1ccc(OC)cc21`
(A) 190

(Q) Provide IC50 value for the following molecule: `COc1ccc2c(c1)c[n+](C)c1ccccc21`
(A) 950

(Q) Provide IC50 value for the following molecule: C[n+]1cc2c3c(ccc2c2ccc4cc5c(cc4c21)OCO5)OCO3 [SANGUINARIUM CHLORIDE]
(A) 200

(Q) Provide IC50 value for the following molecule: COc1cc2c[n+](C)c3c4cc5c(cc4ccc3c2cc1OC)OCO5 [NITIDINE]
(A) 1340

(Q) Provide IC50 value for the following molecule: `COc1ccc2c(c1)c1cc(OC)c(OC)cc1c[n+]2C`
(A) 1170

###

Collected IC50 values appear next to each entry.
# Study system: Aromatic-L-amino-acid decarboxylase (Homo sapiens, UniProt P20711)
# Assay: Inhibition of recombinant human DOPA decarboxylase assessed as inhibition of dopamine production after 30 mins by HPLC method
# Condition parameters: read-out: IC50
Just the number in µM, nothing appended.

| Smiles notation | Study system | IC50 [µM] |
| --- | --- | --- |
| COc1ccc2c(c1)c[n+](C)c1ccc(Cl)cc21 | Aromatic-L-amino-acid decarboxylase (Homo sapiens, UniProt P20711) | 930 |
| COc1ccc2c(c1)c[n+](C)c1ccc(O)cc21 | Aromatic-L-amino-acid decarboxylase (Homo sapiens, UniProt P20711) | 120 |

Attention now turns to another entry.
(Q) Provide IC50 value for the following compound: `COc1ccc2c(c1)c[n+](C)c1ccc(C)cc21`
(A) 600
